The molecules listed here are annotated with their percent of DMSO control GFP.
assay: rapamycin-like changes in RPL19A-GFP expression – cell-based, S. cerevisiae, multiplex flow cytometry, primary screen (AID 1862);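 further: lower values mimic rapamycin by blocking the RPL19A rise seen in DMSO cells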; details: S. cerevisiae RPL19A-GFP strain, flow cytometry fluorescence, 3 h; at 10 µM; stronger effect = lower value
Records with an inconclusive call do not appear.
Readout label: percent of DMSO control GFP (%)

{"Molecule": "COc1ccc(CN2CCCCC2C(=O)Nc2ccc(OC)c(OCC(C)C)c2)cc1OC (stereo not given)", "Readout label": "percent of DMSO control GFP", "Scale unit": "%", "Experimental value": 100}
{"Molecule": "CSCCC(NC(=O)OC(C)(C)C)C(=O)Oc1ccc2c(=O)c(-c3ccc4c(c3)OCCO4)coc2c1 (stereo not given)", "Readout label": "percent of DMSO control GFP", "Scale unit": "%", "Experimental value": 95.9}
{"Molecule": "CCN(CC)C(=O)N1CCN(C)CC1", "Readout label": "percent of DMSO control GFP", "Scale unit": "%", "Experimental value": 101}
{"Molecule": "CC(C)CC(=O)NC(NC(=O)CC(C)C)c1cccc([N+](=O)[O-])c1", "Readout label": "percent of DMSO control GFP", "Scale unit": "%", "Experimental value": 101}
{"Molecule": "COc1ccc2c(c1OC)C(=O)N1C2SC[C@H]1C(=O)NC1CC(C)(C)NC(C)(C)C1 (stereo not given in full)", "Readout label": "percent of DMSO control GFP", "Scale unit": "%", "Experimental value": 99.8}
{"Molecule": "O=C(O)CCCCCNC(=O)Nc1ccc2c(c1)OCCO2", "Readout label": "percent of DMSO control GFP", "Scale unit": "%", "Experimental value": 101}
{"Molecule": "Cc1ccc(C2=NOC(=O)/C2=C\\C=C\\c2ccccc2)cc1", "Readout label": "percent of DMSO control GFP", "Scale unit": "%", "Experimental value": 107}
{"Molecule": "COc1ccccc1N1C(=O)C2CC(C)=C(C)CC2C1=O (stereo not given)", "Readout label": "percent of DMSO control GFP", "Scale unit": "%", "Experimental value": 103}
{"Molecule": "CCOC(=O)N1c2ccccc2C=CC1OCC (stereo not given)", "Readout label": "percent of DMSO control GFP", "Scale unit": "%", "Experimental value": 103}
{"Molecule": "COc1ccc([C@H]2[C@H](C(=O)OC(C)(C)C)N3N=Cc4ccccc4C3C23C(=O)c2ccccc2C3=O)cc1OC (stereo not given in full)", "Readout label": "percent of DMSO control GFP", "Scale unit": "%", "Experimental value": 99.1}

====

assay: reduced mouse 2C T cell binding to pMHC/ICAM-1 vesicles – MLPCN validation set, flow cytometry, LFA-1/ICAM-1 modulator project, pilot screen (AID 2523); conditions: 2C mouse CD8+ T cells, at 7 µM, stronger effect = lower value;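 further: mean PE anti-B7-1 fluorescence of CD8+ cells relative to row control; 100% = QL9-loaded vesicles with DMSO vehicle in the same plate row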

{"Molecule": "CCOc1ccc(C(=O)N2CCCC2C(=O)O)cc1 (configuration not stated)", "vesicle binding response / %": 163}
{"Molecule": "CSCC[C@H](NC(=O)NC1CCCC1)C(=O)O", "vesicle binding response / %": 233}
{"Molecule": "Cc1ccc2c(c1)C1(C(=O)N2)N2CCCC2C(C(=O)c2ccc3ccccc3c2)C12C(=O)Nc1ccccc12 (configuration not stated)", "vesicle binding response / %": 224}
{"Molecule": "CCCc1c(OCCCCc2nn[nH]n2)ccc(C(C)=O)c1O", "vesicle binding response / %": 197}
{"Molecule": "Cc1cc(O)c2/c(=N\\N)c(-c3csc(C)n3)coc2c1", "vesicle binding response / %": 96.1}
{"Molecule": "Cc1ccccc1NC(=O)c1c(C)cc(=O)oc1C", "vesicle binding response / %": 771}
{"Molecule": "Cc1ccc(Cl)c(OCCCN(C)Cc2ccccc2)c1", "vesicle binding response / %": 161}
{"Molecule": "COc1ccccc1C(O)c1nccn1C (configuration not stated)", "vesicle binding response / %": 282}
{"Molecule": "COc1cc(NC(=S)NN2CCN(C)CC2)cc(OC)c1OC", "vesicle binding response / %": 240}
{"Molecule": "OCC(O)CN1CCN(c2ccccc2)CC1 (configuration not stated)", "vesicle binding response / %": 145}
{"Molecule": "COC(=O)c1ccc(OCCCCN2CC(C)OC(C)C2)cc1 (configuration not stated)", "vesicle binding response / %": 228}
{"Molecule": "COc1c(O)ccc2c1CN1CCc3cc4c(cc3C1C2)OCO4 (configuration not stated)", "vesicle binding response / %": 157}

====

experiment: TOR pathway LAP4-GFP level changes – S. cerevisiae, multiplex flow cytometry, primary screen (AID 1873); conditions: S. cerevisiae LAP4-GFP expression, 3 h, at 10 µM, stronger effect = higher value
Inconclusive results are not listed.
The compounds listed here are annotated with their GFP response vs DMSO.

{"Compound": "Cc1cc(Cl)cc2c1NC(=O)[C@]21[C@@H]2C(=O)N(Cc3ccccc3)C(=O)[C@@H]2[C@@H]2CCCN21", "GFP response vs DMSO [%]": 102}
{"Compound": "CN1[C@@H]2CC[C@H]1CC(OC(=O)C(CO)c1ccccc1)C2 (stereo partly specified)", "GFP response vs DMSO [%]": 86.1}
{"Compound": "O=C(N1CCCC1)C12CC3CC(C1)CC(C(=O)N1CCCC1)(C3)C2", "GFP response vs DMSO [%]": 124}
{"Compound": "CCOCCn1c(C(C)O)nc2ccccc21 (stereo unspecified)", "GFP response vs DMSO [%]": 98}
{"Compound": "O=C(CCC(=O)c1cccs1)c1cccs1", "GFP response vs DMSO [%]": 72.6}
{"Compound": "C=C(C)[C@@H]1CC=C(CN2CCC(N3CCC(C(=O)N4CCCC4)CC3)CC2)CC1", "GFP response vs DMSO [%]": 92}

====

molecular target: GTPase HRas (Homo sapiens) (UniProt P01112); test: Ras wt fluorescent GTP loading blockade – biochemical, wildtype, multiplex bead flow cytometry, dose response (AID 1335); details: bead-based flow cytometry, Bodipy-GTP binding to GST-Ras; at 100 µM (top of the series) unless noted
Sequence (P01112 whole entry, looked up): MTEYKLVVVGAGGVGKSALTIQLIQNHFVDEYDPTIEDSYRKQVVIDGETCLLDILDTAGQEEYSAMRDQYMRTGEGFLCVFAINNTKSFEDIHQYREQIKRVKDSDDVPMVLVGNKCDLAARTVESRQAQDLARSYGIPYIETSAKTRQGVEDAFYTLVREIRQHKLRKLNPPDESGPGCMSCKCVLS
So basically, the class depends on measured GTP binding, percent of control, and the ranges are bucket 1 (below 70%), bucket 2 (70% to below 80%), bucket 3 (80% or more)

{"Chemical structure": "Cc1nn(Cc2ccccc2)c(C)c1NC(=O)CSc1nc2c(c(C(F)(F)F)n1)CCc1ccccc1-2", "Measured target": "GTPase HRas (Homo sapiens) (UniProt P01112)", "Group": "bucket 2"}
{"Chemical structure": "COc1cccc(-n2nc3c(=S)[nH]nc(C)c3c2C)c1", "Measured target": "GTPase HRas (Homo sapiens) (UniProt P01112)", "Group": "bucket 1"}
{"Chemical structure": "COc1cccc(OCc2ccccc2Br)c1C(=O)O", "Measured target": "GTPase HRas (Homo sapiens) (UniProt P01112)", "Group": "bucket 3"}
{"Chemical structure": "C=CCN1C(=O)/C(=C/c2ccc(N(C)C)cc2)S/C1=N\\c1nnc(CC)s1", "Measured target": "GTPase HRas (Homo sapiens) (UniProt P01112)", "Group": "bucket 3"}
{"Chemical structure": "COc1cc(/C=C(\\C#N)c2nc3ccc(C)cc3[nH]2)cc([N+](=O)[O-])c1O", "Measured target": "GTPase HRas (Homo sapiens) (UniProt P01112)", "Group": "bucket 1"}
{"Chemical structure": "CCCc1nc2c(=O)n(C)c(=O)nc-2n(C)n1", "Measured target": "GTPase HRas (Homo sapiens) (UniProt P01112)", "Group": "bucket 3"}

====

biological target: GTPase HRas (Homo sapiens); assay: blockade of GTP loading onto mutant Ras – biochemical, activated mutant, multiplex bead flow cytometry, dose response (AID 1341); conditions: bead-based flow cytometry, Bodipy-FL-GTP binding; series mostly up to 100 µM;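 further: GST-tagged constitutively activated Ras mutant immobilized on beads and multiplexed with other GTPases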
Measured potencies and affinities stand elsewhere. Active and inactive are the calls of the source.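 The calls were made as follows: active = dose-response curve with midpoint inside the tested range, moderate steepness, significant amplitude and little compound fluorescence or bead-attachment interference; inactive = the rest.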
Readout label: outcome

{"Molecule": "CCOc1ccc2ccccc2c1/C=N/n1cncn1", "Measured target": "GTPase HRas (Homo sapiens)", "Experimental value": "inactive"}
{"Molecule": "Cc1ccc(NS(=O)(=O)c2cc(NC(=O)c3ccc4c(c3)NC(=O)CS4)ccc2Cl)c(C)c1", "Measured target": "GTPase HRas (Homo sapiens)", "Experimental value": "inactive"}
{"Molecule": "COc1cccc(OCc2c(C)cccc2C)c1C(=O)O", "Measured target": "GTPase HRas (Homo sapiens)", "Experimental value": "inactive"}
{"Molecule": "COc1ccc(-c2cc(-c3ccccc3)c(C#N)c(=S)[nH]2)cc1", "Measured target": "GTPase HRas (Homo sapiens)", "Experimental value": "inactive"}
{"Molecule": "Cc1sc2ncnc(N/N=C/c3ccc(O)cc3)c2c1C", "Measured target": "GTPase HRas (Homo sapiens)", "Experimental value": "inactive"}
{"Molecule": "O=C(Nc1cc(S(=O)(=O)Nc2ccccc2Cl)ccc1O)c1sc2cc(Cl)ccc2c1Cl", "Measured target": "GTPase HRas (Homo sapiens)", "Experimental value": "inactive"}
{"Molecule": "C=CCc1ccccc1OCc1cccc(C(=O)O)c1", "Measured target": "GTPase HRas (Homo sapiens)", "Experimental value": "inactive"}
{"Molecule": "O=S(=O)(Cc1ccc(Cl)cc1)c1ccccc1-c1nnc(-c2ccccc2)o1", "Measured target": "GTPase HRas (Homo sapiens)", "Experimental value": "inactive"}
{"Molecule": "COCCn1c(=S)[nH]c2cc(C(=O)N3CCc4ccccc4C3)ccc2c1=O", "Measured target": "GTPase HRas (Homo sapiens)", "Experimental value": "inactive"}
{"Molecule": "COc1cc2c(cc1OC)-c1cc(NCc3ccccn3)nc(=O)n1CC2", "Measured target": "GTPase HRas (Homo sapiens)", "Experimental value": "inactive"}
{"Molecule": "Cn1c(N/N=C/c2ccccc2)nc2sc3c(c2c1=O)CCC3", "Measured target": "GTPase HRas (Homo sapiens)", "Experimental value": "inactive"}
{"Molecule": "O=S(=O)(N/N=C\\c1cccnc1)c1ccccc1", "Measured target": "GTPase HRas (Homo sapiens)", "Experimental value": "inactive"}
{"Molecule": "COC(=O)c1cn(CCOc2ccccc2)c2ccccc12", "Measured target": "GTPase HRas (Homo sapiens)", "Experimental value": "inactive"}
{"Molecule": "CCOC(=O)c1c(-c2ccccc2)csc1NC(=O)/C(C#N)=C/c1ccc(O)c(OC)c1", "Measured target": "GTPase HRas (Homo sapiens)", "Experimental value": "inactive"}
{"Molecule": "COc1ccc2o/c(=N/NC(=O)c3cccs3)c(C(N)=O)cc2c1", "Measured target": "GTPase HRas (Homo sapiens)", "Experimental value": "inactive"}
{"Molecule": "O=C(CSc1nnc2c(n1)[nH]c1ccccc12)Nc1ccc(S(=O)(=O)Nc2ncccn2)cc1", "Measured target": "GTPase HRas (Homo sapiens)", "Experimental value": "inactive"}
{"Molecule": "CN(C)S(=O)(=O)c1ccc(C(=O)NNc2nc(-c3ccccc3)c3cc(Br)ccc3n2)cc1", "Measured target": "GTPase HRas (Homo sapiens)", "Experimental value": "inactive"}
{"Molecule": "COc1cccc(C2CC(c3ccccc3)=NN2S(=O)(=O)c2ccc(C)cc2)c1OC (configuration not stated)", "Measured target": "GTPase HRas (Homo sapiens)", "Experimental value": "inactive"}
{"Molecule": "O=C(Cn1cnc2cc([N+](=O)[O-])ccc2c1=O)NCCc1ccc(Cl)cc1", "Measured target": "GTPase HRas (Homo sapiens)", "Experimental value": "inactive"}
{"Molecule": "Cc1ccc(C(C)C)c(OCCSc2nc3ccccc3n2CC(=O)O)c1", "Measured target": "GTPase HRas (Homo sapiens)", "Experimental value": "inactive"}
{"Molecule": "COc1cc([N+](=O)[O-])ccc1N=Nc1c(N)[nH]n(-c2ccccc2)c1=O", "Measured target": "GTPase HRas (Homo sapiens)", "Experimental value": "inactive"}
{"Molecule": "O=S(=O)(Cc1ccccc1)c1ccccc1-c1nnc(-c2ccccc2)o1", "Measured target": "GTPase HRas (Homo sapiens)", "Experimental value": "inactive"}
